The molecules listed here are annotated with their pEC50.
Molecular target: CLK2 kinase (Homo sapiens)
Sequence (P49760 whole entry): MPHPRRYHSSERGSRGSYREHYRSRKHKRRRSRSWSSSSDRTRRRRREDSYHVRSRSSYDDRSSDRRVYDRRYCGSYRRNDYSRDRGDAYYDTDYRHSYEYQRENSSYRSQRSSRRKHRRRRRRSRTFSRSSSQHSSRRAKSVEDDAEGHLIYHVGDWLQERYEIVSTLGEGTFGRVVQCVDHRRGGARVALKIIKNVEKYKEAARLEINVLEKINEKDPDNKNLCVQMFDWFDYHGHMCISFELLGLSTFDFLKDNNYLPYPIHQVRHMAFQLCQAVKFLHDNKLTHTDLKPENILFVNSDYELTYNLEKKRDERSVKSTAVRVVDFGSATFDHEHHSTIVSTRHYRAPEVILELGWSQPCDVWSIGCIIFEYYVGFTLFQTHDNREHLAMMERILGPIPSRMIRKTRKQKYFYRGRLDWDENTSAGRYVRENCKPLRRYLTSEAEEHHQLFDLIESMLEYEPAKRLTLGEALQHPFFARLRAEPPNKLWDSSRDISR
Assay: CLK2 kinase activity assay (Z-lyte FRET);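 also: FRET read-out as coumarin to fluorescein emission ratio, unphosphorylated peptide as 0% and phosphorylated peptide as 100% controls, duplicate reactions, non-linear regression fit of dose-response curves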
Details: Z-lyte Ser/Thr 6 peptide, 60 μM ATP, 1 h at room temperature
Please express pEC50 as -log10 of the molar concentration.

Please review the entries below; each comes with its answer.
1. c1cc(-c2ccnc3[nH]c(-c4n[nH]c5ccc(-c6cncnc6)cc45)cc23)ccn1 [compound 405] : 8.52
2. O=C(Nc1cc2cc(-c3cncc(NCC4(F)CNC4)n3)ncc2cn1)C1CC1 [compound 615] : 8.15
3. O=C(Nc1cncc(-c2ccc3[nH]nc(-c4cc5cnccc5[nH]4)c3c2)c1)C1CCCCC1 [compound 431] : 9.00

Kindly review the next molecule as well.
Request: State the recorded pEC50 for this entry: Fc1ccccc1-c1cncc2[nH]c(-c3n[nH]c4ncc(-c5cn[nH]c5)cc34)cc12 [compound 339]
Response: 8.15
